Kindly supply the reported CRF1R Emax values for the records listed here.
# target_or_test_system: CRF1R
# experiment_description: cell-based or functional assay
Ends that are not written are not given here.
Return type: number; implicit unit %.

Prompt: For the binder ZGPPISIDLPFQLLRKMIEIEKQEKEKQQATTNARLLDTV (C-terminal amide) [SEQ ID NO 20] , give its reported CRF1R Emax.
Completion: 60

Prompt: For the binder ZGPPISIDLPLVLLRKMIEIEKQEKEKQQAANNRLLLDTI (C-terminal amide) [SEQ ID NO 193] , give its reported CRF1R Emax.
Completion: 95

Prompt: For the binder IVLSLDVPIGLLQILLEQERQRAAREQATTNARILARV-NH2 [SEQ ID NO 111] , give its reported CRF1R Emax.
Completion: 9

Prompt: For the binder ZGPPISIDLPTPLLRKMIEIEKQEKEKQQAANNRLLLDTI (C-terminal amide) [SEQ ID NO 52] , give its reported CRF1R Emax.
Completion: 13

Prompt: For the binder ZGPPISIDLPTWLLRKMIEIEKQEKEKQQAANNRLLLDTI (C-terminal amide) [SEQ ID NO 41] , give its reported CRF1R Emax.
Completion: 43

Prompt: For the binder ZGPPISIDLPFILLRKMIEIEKQEKEKQQAANNRLLLDTI (C-terminal amide) [SEQ ID NO 189] , give its reported CRF1R Emax.
Completion: 57

Prompt: For the binder ZGPPISIDLPPYLLRKMIEIEKQEKEKQQAANNRLLLDTI (C-terminal amide) [SEQ ID NO 57] , give its reported CRF1R Emax.
Completion: 12

Prompt: For the binder DNPSLSIDLPLLLLRTLLELARTQSQRERAEQNAIIFASV-NH2 [SEQ ID NO 174] , give its reported CRF1R Emax.
Completion: 29.1

Prompt: For the binder SQEPPISLDLPFGLLREVLEMTKADQLAQQAHSNRKLLDIA-NH2 [SEQ ID NO 103] , give its reported CRF1R Emax.
Completion: 5.75

Prompt: For the binder ZGPPISIDLSLELLRKMIEIEKQEKEKQQAANNALLLATI (C-terminal amide) [SEQ ID NO 30] , give its reported CRF1R Emax.
Completion: 100

Prompt: For the binder IVLSLDVPIGLLQILLEQAKAEAAREQATTNARILARV-NH2 [SEQ ID NO 112] , give its reported CRF1R Emax.
Completion: 10

Prompt: For the binder ZGPPISIDLPIQLLRKMIEIEKQEKEKQQAANNRLLLDTI (C-terminal amide) [SEQ ID NO 78] , give its reported CRF1R Emax.
Completion: 6

Prompt: For the binder SQEPPISLDLPIQLLREVLEMTKADQLAQQAHSNRKLLDIA-NH2 [SEQ ID NO 100] , give its reported CRF1R Emax.
Completion: 6.25

Prompt: For the binder IVLSLDVPIGLLQILLEQTRADAAREQATTNARILARV-NH2 [SEQ ID NO 126] , give its reported CRF1R Emax.
Completion: 7

Prompt: For the binder ZGPPISIDLPIYLLRKMIEIEKQEKEKQQAANNRLLLDTI (C-terminal amide) [SEQ ID NO 79] , give its reported CRF1R Emax.
Completion: 8

Prompt: For the binder IVLSLDVPIGLLQILLEQERQEAAREQATTNARILARV-NH2 [SEQ ID NO 118] , give its reported CRF1R Emax.
Completion: 5

Prompt: For the binder SQEPPISLDLPLGLLREVLEMTKADQLAQQAHSNRKLLDIA-NH2 [SEQ ID NO 90] , give its reported CRF1R Emax.
Completion: 4

Prompt: For the binder IVLSLDVPIGLLQILLEQAKQEAAREQATTNARILARV-NH2 [SEQ ID NO 124] , give its reported CRF1R Emax.
Completion: 6

Prompt: For the binder IVLSLDVPIGLLQILLEQAAAREQATTNARILARV-NH2 [SEQ ID NO 139] , give its reported CRF1R Emax.
Completion: 4

Prompt: For the binder ZGPPISIDLPWQLLRKMIEIEKQEKEKQQAANNRLLLDTI (C-terminal amide) [SEQ ID NO 210] , give its reported CRF1R Emax.
Completion: 90

Prompt: For the binder DNPSLSIDLPFILLRTLLELARTQSQRERAEQNAIIFASV-NH2 [SEQ ID NO 181] , give its reported CRF1R Emax.
Completion: 100

Prompt: For the binder IVLSLDVPIGLLQILLEQAARAAREQATTNARILARV-NH2 [SEQ ID NO 135] , give its reported CRF1R Emax.
Completion: 6

Prompt: For the binder IVLSLDVPIGLLQEVLEMARAEQLAQQAHSNRKLMEII-NH2 [SEQ ID NO 165] , give its reported CRF1R Emax.
Completion: 19

Prompt: For the binder ZGPPISIDLPDYLLRKMIEIEKQEKEKQQAANNRLLLDTI (C-terminal amide) [SEQ ID NO 54] , give its reported CRF1R Emax.
Completion: 10
